Method description: Microsome stability assay, human liver microsomes
Format: in vitro ADME
Measurement parameters: 60 min; 1 μM compound, 0.5 mg/mL microsomal protein
T means recorded Microsome Stability Human liver microsomes % Remaining @60 min is 70% or above; F means it is below 70%.

### Prompt # bool: Microsome Stability Human liver microsomes % Remaining @60 min of Cc1ccc2c(c1)SC(C)CC2NC(=O)c1ccc(C(F)(F)F)[nH]c1=O (centres unmarked) >= 70%
### Response F

### Prompt Quick one: O=C(NC(c1ccccc1)c1ccc2c(c1)OCO2)c1ccc(C(F)(F)F)[nH]c1=O (centres unmarked)
### Response F

### Prompt Next up: COc1ccc(C(NC(=O)c2ccc(C(F)(F)F)[nH]c2=O)c2ccc(OC)cc2)cc1
### Response F

### Prompt Check O=C(NC(c1ccccc1)c1ccc(Oc2ccccc2)cc1)c1ccc(C(F)(F)F)[nH]c1=O (centres unmarked) too.
### Response F

### Prompt Param item: O=C(NC(c1ccccc1)c1ccc(Cl)cc1)c1ccc(C(F)(F)F)[nH]c1=O (centres unmarked)
### Response T

### Prompt Next molecule: O=C(NC(c1ccc(C(F)(F)F)cc1)c1ccc(C(F)(F)F)cc1)c1ccc(C(F)(F)F)[nH]c1=O
### Response T

### Prompt Field entry: CCCC1Cc2ccc(C)cc2C1NC(=O)c1ccc(C(F)(F)F)[nH]c1=O (centres unmarked)
### Response F

* * *

Each entry below carries its measured IC50, system: HSD17B1 (Homo sapiens (Human), UniProt P14061).
Sequence (P14061 other isoform, or with tags, fused parts or gaps): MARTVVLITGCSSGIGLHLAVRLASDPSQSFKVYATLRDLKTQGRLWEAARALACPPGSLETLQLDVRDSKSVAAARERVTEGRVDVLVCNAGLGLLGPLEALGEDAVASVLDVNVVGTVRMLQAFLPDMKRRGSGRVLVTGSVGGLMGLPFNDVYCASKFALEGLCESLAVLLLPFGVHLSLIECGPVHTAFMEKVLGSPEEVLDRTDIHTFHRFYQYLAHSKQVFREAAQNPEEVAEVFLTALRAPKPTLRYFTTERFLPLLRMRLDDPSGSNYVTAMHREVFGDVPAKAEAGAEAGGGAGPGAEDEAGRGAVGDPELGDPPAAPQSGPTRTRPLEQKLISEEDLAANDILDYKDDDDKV

### Prompt // returns reported IC50 for input CNc1cccc(C(NC(=O)c2ccc(C(F)(F)F)[nH]c2=O)c2ccc(C)cc2)c1 (stereo not drawn) [Compound 419]
### Response > 30 µM

### Prompt Thanks! And CCC1Cc2cc(C)ccc2C(NC(=O)c2ccc(C(F)(F)F)[nH]c2=O)C1 (stereo not drawn) [Compound 388] ?
### Response > 30 µM

### Prompt Entry CCC[C@H]1C[C@@H](NC(=O)c2ccc(C(F)(F)F)[nH]c2=O)c2cc(C)ccc2N1 [Compound 362] please
### Response > 30 µM

* * *

Give measured half-life at 1 μM for each item. Keep answers brief.
Method description: Microsome stability assay, human liver microsomes
Type: in vitro ADME
Measurement parameters: human, human liver microsomes, pooled; 1 μM compound, 0.5 mg/mL microsomal protein, NADPH, 37° C.; read-out: Microsome Stability Human liver microsomes T½
Method: Compounds of the disclosure were screened in microsome stability assays. […] A single point for each test condition (n=1) was obtained, and samples were analyzed by LC/MS/MS. Disappearance of the test compound was assessed based on peak area ratios of analyte/IS (no standard curve).

### Prompt Query: half-life at 1 μM; subject: O=C(NC(c1ccccc1)c1ccc(C(F)(F)F)cc1)c1ccc(C(F)(F)F)[nH]c1=O (stereo not drawn)
### Response > 2.42 h

### Prompt Next up: O=C(NC(c1ccccc1)c1cccc(C(F)(F)F)c1)c1ccc(C(F)(F)F)[nH]c1=O (stereo not drawn)
### Response > 2.42 h

### Prompt Now consider O=C(NC(c1ccc(Cl)cc1)c1ccc(Cl)cc1)c1ccc(C(F)(F)F)[nH]c1=O and answer again.
### Response > 2.42 h

* * *

System name: HSD17B13 (Homo sapiens (Human), UniProt Q7Z5P4)
Sequence (Q7Z5P4 other isoform, or with tags, fused parts or gaps): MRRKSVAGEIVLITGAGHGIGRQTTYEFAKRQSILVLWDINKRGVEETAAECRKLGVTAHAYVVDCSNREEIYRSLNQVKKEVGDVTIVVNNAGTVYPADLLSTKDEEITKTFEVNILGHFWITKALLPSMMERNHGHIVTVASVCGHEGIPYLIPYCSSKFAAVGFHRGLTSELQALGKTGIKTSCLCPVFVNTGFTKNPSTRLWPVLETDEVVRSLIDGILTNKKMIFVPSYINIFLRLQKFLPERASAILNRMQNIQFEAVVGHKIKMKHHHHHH
Method description: HSD17B13 enzymatic inhibition assay (150 nM or 50 nM HSD17B13)
Assay type: biochemical
Measurement parameters: 50 nM HSD17B13; read-out: Inhibition of 50 nM of HSD17B13 IC50
pIC50: −log10 of the molar value.
pIC50 of 7 or higher: Fulfilled. Under 7: Not fulfilled.

### Prompt Determine whether this molecule has pIC50 no lower than 7: COc1c(C)cccc1C(NC(=O)c1ccc(C(F)(F)F)[nH]c1=O)c1ccccc1 (centres unmarked)
### Response Not fulfilled

### Prompt Another molecule: CCN1CCC(NC(=O)c2ccc(C(F)(F)F)[nH]c2=O)c2ccc(C)cc21 (centres unmarked)
### Response Not fulfilled

### Prompt Lookup Cc1ccc2c(c1)Oc1cc(C)ccc1C2NC(=O)c1cc(CO)c(C(F)(F)F)[nH]c1=O
### Response Fulfilled

### Prompt Then what about the molecule Cc1ccc(C(NC(=O)c2ccc(C(F)(F)F)[nH]c2=O)C2CCCCC2)cc1 (centres unmarked) ?
### Response Not fulfilled

### Prompt Next record, please: Cc1ccc2c(c1)S(=O)(=O)c1cc(C)ccc1C2NC(=O)c1cc(C)c(C(F)(F)F)[nH]c1=O
### Response Fulfilled

### Prompt Next molecule up: O=C(NC(c1ccccc1)c1cccc(=O)[nH]1)c1ccc(C(F)(F)F)[nH]c1=O (centres unmarked)
### Response Not fulfilled

### Prompt Same for CCc1cc(C(F)(F)F)[nH]c(=O)c1C(=O)NC1c2ccc(Cl)cc2Oc2cc(Cl)ccc21
### Response Not fulfilled

### Prompt // next record O=C(NC(c1ccccc1)c1ccc(-c2ccccn2)cc1)c1ccc(C(F)(F)F)[nH]c1=O (centres unmarked)
### Response Not fulfilled

### Prompt Similarly, Cc1ccc2c(c1)Oc1cc(C)ccc1C2NC(=O)c1ccc(-c2ccccc2)[nH]c1=O ?
### Response Not fulfilled

* * *

Entries below carry reported IC50 on HSD17B2 (Homo sapiens (Human)).
Sequence (P37059 other isoform, or with tags, fused parts or gaps): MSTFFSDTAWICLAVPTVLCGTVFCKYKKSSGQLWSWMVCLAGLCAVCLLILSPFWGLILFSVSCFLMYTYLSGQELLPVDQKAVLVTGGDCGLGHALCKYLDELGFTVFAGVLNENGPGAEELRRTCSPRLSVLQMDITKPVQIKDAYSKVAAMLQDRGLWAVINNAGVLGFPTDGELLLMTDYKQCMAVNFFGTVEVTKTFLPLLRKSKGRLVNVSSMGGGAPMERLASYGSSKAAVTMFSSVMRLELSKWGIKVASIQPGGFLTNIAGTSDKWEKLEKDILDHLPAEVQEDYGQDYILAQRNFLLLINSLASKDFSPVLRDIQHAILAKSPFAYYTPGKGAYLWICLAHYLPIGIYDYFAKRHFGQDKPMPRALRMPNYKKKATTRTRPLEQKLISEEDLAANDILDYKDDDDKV
Kindly answer with a numeric value in µM, unit omitted.

### Prompt Test system HSD17B2 (Homo sapiens (Human)); read-out IC50; what value for COc1ccc2c(c1)Sc1ccccc1C2NC(=O)c1ccc(C(F)F)[nH]c1=O (stereo not drawn) ?
### Response 29.7

### Prompt Same question, O=C(NC(c1ccc(OC(F)F)cc1)c1ccc(OC(F)F)cc1)c1ccc(C(F)(F)F)[nH]c1=O this time
### Response 12.8

### Prompt Also Cc1ccc(C(NC(=O)c2ccc(C(F)(F)F)[nH]c2=O)c2ccc(C)cc2)cc1 ?
### Response 11.2

### Prompt // same read-out, input: O=C(Nc1cccc2c(O)cccc12)c1ccc(C(F)(F)F)[nH]c1=O
### Response 28.6

### Prompt Can you check CCCc1sc2cc(C)ccc2c1NC(=O)c1ccc(C(F)(F)F)[nH]c1=O next?
### Response 16.9

### Prompt Same question for Cc1ccc2c(c1)Oc1cc(C)ccc1C2NC(=O)c1cc(-c2ccncc2)c(C(F)(F)F)[nH]c1=O please.
### Response 39.4

### Prompt Also O=C(NC1c2ccccc2-c2ccccc21)c1ccc(C(F)(F)F)[nH]c1=O , if possible.
### Response 18.2

### Prompt Then Cc1ccc(C(NC(=O)c2ccc(C(F)(F)F)[nH]c2=O)c2ccccc2)cc1 (stereo not drawn) ?
### Response 16.8

* * *

System name: HSD17B13 (Homo sapiens (Human))
Method description: HSD17B13 enzymatic inhibition assay (150 nM or 50 nM HSD17B13)
Assay type: biochemical
Measurement parameters: 50 nM HSD17B13; read-out: Inhibition of 50 nM of HSD17B13 IC50
Assay readout: IC50

### Prompt Fill in the recorded IC50 for this compound, with HSD17B13 (Homo sapiens (Human)) as test system: NCc1ccc(C(NC(=O)c2ccc(C(F)(F)F)[nH]c2=O)c2ccccc2)cc1 (stereo not drawn)
### Response > 10000 nM

### Prompt What would you report for O=C(NC1c2ccc(Cl)cc2Oc2cc(Cl)ccc21)c1ccc[nH]c1=O ?
### Response > 10000 nM

### Prompt Please give the result for O=C(NC(c1ccc(Cl)cc1)c1ccncn1)c1ccc(C(F)(F)F)[nH]c1=O (stereo not drawn) too.
### Response > 10000 nM

### Prompt Please give the result for O=C(Nc1cccc(O)c1)c1ccc(C(F)(F)F)[nH]c1=O too.
### Response > 10000 nM

### Prompt What about Cc1ccc2c(NC(=O)c3ccc(C(F)(F)F)[nH]c3=O)coc2c1 ?
### Response > 10000 nM

### Prompt Okay, and O=C(NC1c2ccc(F)cc2-c2cc(F)ccc21)c1ccc(C(F)(F)F)[nH]c1=O ?
### Response 530 nM

### Prompt Next: Cc1ccc2c(c1)[C@H](NC(=O)c1ccc(C(F)(F)F)[nH]c1=O)C[C@H](C)N2
### Response 1420 nM

### Prompt Cool, now C=Cc1cc(C(=O)NC2c3ccc(Cl)cc3Oc3cc(Cl)ccc32)c(=O)[nH]c1C(F)(F)F
### Response 100 nM

### Prompt One more compound: O=C(NC(c1ccccc1)c1ccc(CO)cc1)c1ccc(C(F)(F)F)[nH]c1=O (stereo not drawn)
### Response 820 nM

* * *

System name: HSD17B13 (Homo sapiens (Human))
Method description: HSD17B13 enzymatic inhibition assay (150 nM or 50 nM HSD17B13)
Type: biochemical
Measurement parameters: 50 nM HSD17B13; read-out: Inhibition of 50 nM of HSD17B13 IC50
Hi there, I'd appreciate the recorded IC50 for every entry that follows.
Your answer should be a plain number; it is taken to be in nM.

### Prompt Can you look up IC50 on HSD17B13 (Homo sapiens (Human)) for Cc1ccc2c(c1)Oc1cnccc1C2NC(=O)c1ccc(C(F)(F)F)[nH]c1=O (stereo not drawn) [Compound 328] ?
### Response 110

### Prompt Thanks! And CCC1Cc2cc(OC)ccc2C(NC(=O)c2ccc(C(F)(F)F)[nH]c2=O)C1 (stereo not drawn) [Compound 390] ?
### Response 70

### Prompt Quick one: Cc1ccc2c(c1)Oc1cc(C)ccc1C2NC(=O)c1cc(N2CCCCC2)c(C(F)(F)F)[nH]c1=O [Compound 436]
### Response 90

### Prompt And C=CCc1cc(C(=O)NC2c3ccc(C)cc3Oc3cccc(C)c32)c(=O)[nH]c1C(F)(F)F (stereo not drawn) [Compound 180] ?
### Response 160

### Prompt Next entry: CCc1ccc(C(NC(=O)c2ccc(C(F)(F)F)[nH]c2=O)c2ccc(C)cc2)cc1 (stereo not drawn) [Compound 443]
### Response 120

### Prompt Ok, now Cc1ccc2c(c1O)CCCC2NC(=O)c1ccc(C(F)(F)F)[nH]c1=O (stereo not drawn) [Compound 231]
### Response 30

### Prompt Try the compound COc1ccc(C(NC(=O)c2ccc(C(F)(F)F)[nH]c2=O)c2ccc(OC)cc2)cc1 [Compound 24]
### Response 600

### Prompt Entry to check: Cc1ccc2c(c1)Oc1cc(C)ccc1C2NC(=O)c1cc(C2=CCCCC2)c(C(F)(F)F)[nH]c1=O [Compound 505]
### Response 80

### Prompt Try this compound too: Cc1ccc2c(c1)[C@H](NC(=O)c1ccc(C(F)(F)F)[nH]c1=O)C[C@@H](C)N2 [Compound 370]
### Response 270

### Prompt Also C=CCc1cc(C(=O)NC2c3ccc(Cl)cc3Oc3cc(Cl)ccc32)c(=O)[nH]c1C(F)(F)F [Compound 173] ?
### Response 30

### Prompt Cc1ccc2c(c1)CC(C)C2NC(=O)c1ccc(C(F)(F)F)[nH]c1=O (stereo not drawn) [Compound 296] ?
### Response 170

### Prompt # iterate: Cc1ccc2c(c1)Oc1cccc(C)c1C2NC(=O)c1cc(CN(C)C)c(C(F)(F)F)[nH]c1=O (stereo not drawn) [Compound 526]
### Response 3780

### Prompt Entry Cc1ccc(C(CC2CC2)NC(=O)c2ccc(C(F)(F)F)[nH]c2=O)cc1 (stereo not drawn) [Compound 401] please
### Response 350

### Prompt Same question for CCC1CCc2cc(Cl)ccc2C1NC(=O)c1ccc(C(F)(F)F)[nH]c1=O (stereo not drawn) [Compound 297] please.
### Response 110

### Prompt Ok, now O=C(NC1c2ccc(Cl)cc2Oc2cc(Cl)ccc21)c1cnc(COc2ccc(C(F)(F)F)cc2)[nH]c1=O [Compound 517]
### Response 570

### Prompt Here is the next compound: Cc1ccc2c(c1)Oc1cc(C)ccc1C2NC(=O)c1cc(-c2ccccn2)c(C(F)(F)F)[nH]c1=O [Compound 510]
### Response 20

### Prompt Can you check Cc1cccc2c1C(NC(=O)c1ccc(C(F)(F)F)[nH]c1=O)c1cnccc1O2 (stereo not drawn) [Compound 329] next?
### Response 1680

Value source: patent US11957687B2
